Tested on: U-2932
Assay: growth inhibition by drug alone (1 - RLU/untreated control) (fraction); higher = stronger inhibition
Conditions: 1000 nM; time (day): 6; 177Lu-lilotomab satetraxetan 0 ug/ml
Parameter: growth inhibition by drug alone. Scope: all listed entries.
Give a plain numeric answer without units written out.

# Compound, Result Value
records = [
    ("CN1CCN(c2ccc3nc(-c4c(N)c5c(F)cccc5[nH]c4=O)[nH]c3c2)CC1", -0.128),
    ("Oc1ccc(Nc2nc(-c3ccc(Cl)cc3)cs2)cc1", -0.13),
    ("CN(c1ncccc1CNc1nc(Nc2ccc3c(c2)CC(=O)N3)ncc1C(F)(F)F)S(C)(=O)=O", 0.694),
    ("CN1CCC(CNc2ccc3ncc(-c4cccc(OC(F)(F)F)c4)n3n2)CC1 [SGI-1776 free base]", -0.00407),
    ("Cc1ccc([N+](=O)[O-])cc1S(=O)(=O)N(C)/N=C/c1cnc2ccc(Br)cn12", 0.979),
]

Input: Consider the compound shown here: `CC[C@H](Nc1ncnc2[nH]cnc12)c1nc2cccc(F)c2c(=O)n1-c1ccccc1` What is its recorded growth inhibition by drug alone?
Output: 0.263

###

Tested on: RIVA
Experiment: growth inhibition by drug plus 177Lu-lilotomab satetraxetan (1 - RLU/untreated control) (fraction); higher = stronger inhibition
Details: 100 nM; time (day): 6; 177Lu-lilotomab satetraxetan 0.5 ug/ml
Parameter: growth inhibition by drug plus 177Lu-lilotomab satetraxetan. Scope: all listed entries.
Give a plain numeric answer without units written out.

The cases that follow already have their growth inhibition by drug plus 177Lu-lilotomab satetraxetan on record.
# Molecule, Target Under Test, Result Value
records = [
    ("CCOc1ccn(-c2ccc(F)cc2)c(=O)c1C(=O)Nc1ccc(Oc2ccnc(N)c2Cl)c(F)c1", "RIVA", 0.514),
    ("C=CC(=O)Nc1cccc(Oc2nc(Nc3ccc(N4CCN(C)CC4)cc3OC)ncc2Cl)c1", "RIVA", 0.321),
    ("COc1cc(Nc2ncc(F)c(Nc3ccc4c(n3)NC(=O)C(C)(C)O4)n2)cc(OC)c1OC [R406(free base)]", "RIVA", 0.575),
    ("O=c1cc(N2CCOCC2)oc2c(-c3cccc4c3sc3ccccc34)cccc12", "RIVA", 0.529),
    ("CCc1cc(-c2n[nH]c(C)c2-c2ccc3c(c2)OCCO3)c(O)cc1O", "RIVA", 0.48),
    ("CC(C)(C)c1cc(NC(=O)Nc2ccc(-c3cn4c(n3)sc3cc(OCCN5CCOCC5)ccc34)cc2)no1", "RIVA", 0.391),
]

Input: Consider the molecule shown here: `C[C@@H]1CN(CC(=O)Nc2ccc3c(c2)Cc2cccc(-c4cc(=O)cc(N5CCOCC5)o4)c2S3)C[C@H](C)O1` What is its recorded growth inhibition by drug plus 177Lu-lilotomab satetraxetan?
Output: 0.373

Input: Consider the molecule shown here: `CCN(CC)C(=S)SSC(=S)N(CC)CC` What is its recorded growth inhibition by drug plus 177Lu-lilotomab satetraxetan?
Output: 0.386

Input: Consider the molecule shown here: `C[C@H](NC(=O)Cc1cc(F)cc(F)c1)C(=O)N[C@@H]1C(=O)N(C)c2ccccc2-c2ccccc21` What is its recorded growth inhibition by drug plus 177Lu-lilotomab satetraxetan?
Output: 0.389

Input: Consider the molecule shown here: `Cc1ccc(C(=O)N(CCCN)[C@@H](c2nc3cc(Cl)ccc3c(=O)n2Cc2ccccc2)C(C)C)cc1` What is its recorded growth inhibition by drug plus 177Lu-lilotomab satetraxetan?
Output: 0.979

// provenance: the supplement of paper PMC6897291
